# experimentalProtocol: Cytotoxicity in HeLa cells (ATP content, ATPlite kit)
# Format: cell-based
# conditionDetails: human, three days incubation, read-out: TOX HELA pCC50 (converted)
Please use met for CC50 at 3 days under 2 µM and not met for everything else, ties included.

Solved entries:
structureSmiles	classification
CC(=O)c1cccc(-c2nccnc2N2CCN(c3ccccc3)CC2)c1	not met
c1ccc(-c2ncccc2N2CCN(c3ccncc3)CC2)cc1	met
Clc1cc(N2CCN(c3cccnc3-c3ccccc3)CC2)ccn1	met

# strict comparison: is reported CC50 at 3 days < 2 µM? input = "c1coc(-c2ccc(-c3ncccc3N3CCN(c4ccncc4)CC3)cc2)c1" not met

I wonder whether "OC1(c2ccccc2)CCN(c2ncccc2N2CCN(c3ccncc3)CC2)CC1" has CC50 at 3 days below 2 µM. Can you tell? not met

Please check: CC50 at 3 days for "FC(F)(F)Oc1ccc(-c2ncccc2N2CCN(c3ccncc3)CC2)cc1" , strictly under 2 µM or not? not met

Hello, is CC50 at 3 days of the following molecule strictly smaller than 2 µM? "c1cnc(-c2coc3ccccc23)c(N2CCN(c3ccncc3)CC2)c1" not met

In plain terms, does "c1cnc(-c2ccc3c(c2)CCO3)c(N2CCN(c3ccncc3)CC2)c1" come in under 2 µM for CC50 at 3 days? met

Identify whether the molecule "c1cnc(-c2cccc3ncccc23)c(N2CCN(c3ccncc3)CC2)c1" records CC50 at 3 days below 2 µM. not met
